Reported MCH values for a set of compounds
Species on record: Rattus norvegicus
Experiment: Open TG-GATES - Regimen: Single
Format: toxicity, organism-based, Sprague-Dawley
Design: regimen Single, gender Male, age 6 weeks
Conditions: in vivo, po, 100 mg/kg, 9 h, tissue Blood, route gavage, dose level Low
Answer in pg, number only, no unit symbol.

CCOC(=O)CCC(=O)O[C@H]1[C@H](O[C@@H]2[C@@H](C)[C@H](O[C@H]3C[C@@](C)(OC)[C@@H](O)[C@H](C)O3)[C@@H](C)C(=O)O[C@H](CC)[C@@](C)(O)[C@H](O)[C@@H](C)C(=O)[C@H](C)C[C@@]2(C)O)O[C@H](C)C[C@@H]1N(C)C [ERYTHROMYCIN ETHYLSUCCINATE]: 21.5
NC(N)=Nc1nc(CSCCC(N)=NS(N)(=O)=O)cs1: 22
COc1ccc2[nH]c([S+]([O-])Cc3ncc(C)c(OC)c3C)nc2c1 (centres undefined): 20.9

Then this compound:
Report MCH, nothing else, for this compound: `COC1=CC(=O)C[C@@H](C)[C@]12Oc1c(Cl)c(OC)cc(OC)c1C2=O`
21.4

====

Species on record: Rattus norvegicus
Assay: Open TG-GATES - Regimen: Single
Type: toxicity, organism-based, Sprague-Dawley
Set-up: regimen Single, gender Male, age 6 weeks
Details: in vivo, po, 0 mg/kg, 6 h, tissue Plasma, route gavage, dose level Control
Reported LDH values for a set of compounds
Answer in IU/L, number only, no unit symbol.

// solved cases for LDH follow
CN(C)CCN(Cc1cccs1)c1ccccn1: 171.6
CC1=C(/C=C/C(C)=C/C=C/C(C)=C/CO)C(C)(C)CCC1: 223.6
CC/C(=C(\c1ccccc1)c1ccc(OCCN(C)C)cc1)c1ccccc1: 52.2
COC1=CC(=O)C[C@@H](C)[C@]12Oc1c(Cl)c(OC)cc(OC)c1C2=O: 157.4

Report LDH, nothing else, for this compound: `CN(C)CCCN1c2ccccc2CCc2ccccc21`
80.4

Report LDH, nothing else, for this compound: `Cc1ccc(C)c(OCCCC(C)(C)C(=O)O)c1`
60.8

Report LDH, nothing else, for this compound: `NC(N)=Nc1nc(CSCCC(N)=NS(N)(=O)=O)cs1`
193.6

Report LDH, nothing else, for this compound: CCCNC(=O)NS(=O)(=O)c1ccc(Cl)cc1 [CHLORPROPAMIDE]
63.6

====

Species on record: Rattus norvegicus
Experiment: Open TG-GATES - Regimen: Daily Repeat
Assay type: toxicity, organism-based, Sprague-Dawley
Parameters: regimen Daily Repeat, gender Male, age 6 weeks
Conditions: in vivo, po, 0 mg/kg, […], tissue Plasma, route gavage, dose level Control, time 28 day
Reported Property: LDH (IU/L)
Answer in IU/L, number only, no unit symbol.

// solved cases for LDH follow
O=C(CCCN1CCC(O)(c2ccc(Cl)cc2)CC1)c1ccc(F)cc1 [HALOPERIDOL]: 79.4
CC1=C(/C=C/C(C)=C/C=C/C(C)=C/CO)C(C)(C)CCC1 [RETINOL]: 145.6
CN(C)CCN(Cc1cccs1)c1ccccn1: 156
COc1ccc2[nH]c([S+]([O-])Cc3ncc(C)c(OC)c3C)nc2c1 (stereo not drawn) [OMEPRAZOLE]: 142.8

Report LDH, nothing else, for this compound: CN(C)CCCN1c2ccccc2CCc2ccccc21 [IMIPRAMINE]
43.4

Report LDH, nothing else, for this compound: CCOC(=O)CCC(=O)O[C@H]1[C@H](O[C@@H]2[C@@H](C)[C@H](O[C@H]3C[C@@](C)(OC)[C@@H](O)[C@H](C)O3)[C@@H](C)C(=O)O[C@H](CC)[C@@](C)(O)[C@H](O)[C@@H](C)C(=O)[C@H](C)C[C@@]2(C)O)O[C@H](C)C[C@@H]1N(C)C [ERYTHROMYCIN ETHYLSUCCINATE]
130.6

Report LDH, nothing else, for this compound: NC(N)=Nc1nc(CSCCC(N)=NS(N)(=O)=O)cs1 [FAMOTIDINE]
123

Report LDH, nothing else, for this compound: NNC(=O)c1ccncc1 [ISONIAZID]
73.4

Data credit: ChEMBL document CHEMBL3885861
